# test.target: ACAT derived from human macrophage (Homo sapiens)
# Construct: Using, as an enzyme source, microsomal fractions prepared in the manner described below under Preparation of Microsome from U937 cells; endogenous in cells; host or cells: U937 cells differentiated with TPA, microsomal fraction
# Sequence (P35610 whole entry): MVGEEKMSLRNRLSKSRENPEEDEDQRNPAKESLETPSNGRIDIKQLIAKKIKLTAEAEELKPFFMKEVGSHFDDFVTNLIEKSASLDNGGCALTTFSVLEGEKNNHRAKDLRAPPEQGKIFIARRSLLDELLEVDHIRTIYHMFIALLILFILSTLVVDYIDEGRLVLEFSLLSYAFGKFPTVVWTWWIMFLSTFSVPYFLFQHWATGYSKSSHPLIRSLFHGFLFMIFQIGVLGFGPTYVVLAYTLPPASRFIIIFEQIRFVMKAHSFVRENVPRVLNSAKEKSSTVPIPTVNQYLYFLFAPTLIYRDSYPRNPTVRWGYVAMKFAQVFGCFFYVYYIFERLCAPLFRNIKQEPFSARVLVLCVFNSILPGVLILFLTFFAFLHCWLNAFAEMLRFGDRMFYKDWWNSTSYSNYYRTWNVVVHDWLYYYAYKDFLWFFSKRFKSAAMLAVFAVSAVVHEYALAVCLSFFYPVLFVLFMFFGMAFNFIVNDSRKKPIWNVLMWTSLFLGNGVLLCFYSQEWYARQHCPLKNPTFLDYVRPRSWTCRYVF
# protocol.details: Inhibitory activity against ACAT derived from human macrophage (microsomes of TPA-differentiated U937 cells)
# Assay type: biochemical
# cond: Table 1; rat liver ACAT IC50 / human macrophage ACAT IC50
assay.readout: Selectivity

compound="CCC=CCC=CCC=CCC=CCC=CCCCC(=O)Nc1c(C)cc(C)cc1C [Compound 5]" value_prefix== reading=47.9
compound="CCC=CCC=CCC=CCC=CCC=CCC=CCCC(=O)NC1CCCCC1NC(=O)Nc1c(C(C)C)cccc1C(C)C (centres unmarked) [Compound 18]" value_prefix=> reading=190
compound="CCC=CCC=CCC=CCC=CCC=CCC=CCCC(=O)Nc1c(OC)cc(OC)cc1OC [Compound 2]" value_prefix== reading=40.6
compound="CCC=CCC=CCC=CCC=CCC=CCCCC(=O)Nc1c(C)cccc1C [Compound 7]" value_prefix== reading=70.8
compound="CCC=CCC=CCC=CCC=CCC=CCCCC(=O)Nc1c(CC)cccc1CC [Compound 9]" value_prefix== reading=60
compound="CCC=CCC=CCC=CCC=CCC=CCC=CCCC(=O)Nc1c(C)cc(C)cc1C [Compound 6]" value_prefix=> reading=3333
compound="CCC=CCC=CCC=CCC=CCC=CCCCC(=O)NC1CCCCC1NC(=O)Nc1c(C(C)C)cccc1C(C)C (centres unmarked) [Compound 17]" value_prefix=> reading=269
compound="CCC=CCC=CCC=CCC=CCC=CCCCC(=O)NCc1ccc(NC(=O)Nc2c(C(C)C)cccc2C(C)C)cc1 [Compound 21]" value_prefix=> reading=75.3
compound="CCC=CCC=CCC=CCC=CCC=CCCCC(=O)NCCNC(=O)Nc1c(C(C)C)cccc1C(C)C [Compound 13]" value_prefix=> reading=746
compound="CCC=CCC=CCC=CCC=CCC=CCC=CCCC(=O)Nc1c(C)cccc1C [Compound 8]" value_prefix== reading=264
compound="CCC=CCC=CCC=CCC=CCC=CCCCC(=O)Nc1c(F)cc(F)cc1F [Compound 3]" value_prefix=> reading=1852
compound="CCC=CCC=CCC=CCC=CCC=CCC=CCCC(=O)Nc1c(F)cc(F)cc1F [Compound 4]" value_prefix=> reading=806
compound="CCC=CCC=CCC=CCC=CCC=CCCCC(=O)Nc1c(C(C)C)cccc1C(C)C [Compound 11]" value_prefix== reading=247
compound="CCC=CCC=CCC=CCC=CCC=CCC=CCCC(=O)NCc1ccc(NC(=O)Nc2c(C(C)C)cccc2C(C)C)cc1 [Compound 22]" value_prefix=> reading=27.9

###

# test.target: ACAT derived from human macrophage (Homo sapiens)
# Construct: Using, as an enzyme source, microsomal fractions prepared in the manner described below under Preparation of Microsome from U937 cells; endogenous in cells; host or cells: U937 cells differentiated with TPA, microsomal fraction
# protocol.details: Inhibitory activity against ACAT derived from human macrophage (microsomes of TPA-differentiated U937 cells)
# Assay type: biochemical
# cond: human macrophage (U937/TPA) microsome, pH 7.4, 37° C., 30 minutes
assay.readout: log10 IC50 (log10 of the value in µM)

compound=CCC=CCC=CCC=CCC=CCC=CCCCC(=O)Nc1c(OC)cc(OC)cc1OC reading=-0.57
compound=CCC=CCC=CCC=CCC=CCC=CCC=CCCC(=O)N1CCN(C(=O)Nc2c(C(C)C)cccc2C(C)C)CC1 reading=-0.16
compound="CCCCC/C=C\\C/C=C\\CCCCCCCC(=O)Nc1c(CC)cccc1CC [reference compound]" reading=-1.70
compound=CCC=CCC=CCC=CCC=CCC=CCCCC(=O)Nc1c(C)cccc1C reading=-1.22
compound=CCC=CCC=CCC=CCC=CCC=CCCCC(=O)Nc1c(F)cc(F)cc1F reading=-0.57
compound=CCC=CCC=CCC=CCC=CCC=CCC=CCCC(=O)Nc1ccc(CNC(=O)Nc2c(C(C)C)cccc2C(C)C)cc1 reading=0.04
compound=CCC=CCC=CCC=CCC=CCC=CCCCC(=O)NCc1ccc(NC(=O)Nc2c(C(C)C)cccc2C(C)C)cc1 reading=0.82
compound="CCCCC/C=C\\C/C=C\\CCCCCCCC(=O)Nc1c(OC)cc(OC)cc1OC [reference compound]" reading=-0.17
